# tgt: CYP1A2 (Homo sapiens, UniProt P05177)
# Construct: from tissue; host or cells: human liver microsomes
# Sequence (P05177 whole entry): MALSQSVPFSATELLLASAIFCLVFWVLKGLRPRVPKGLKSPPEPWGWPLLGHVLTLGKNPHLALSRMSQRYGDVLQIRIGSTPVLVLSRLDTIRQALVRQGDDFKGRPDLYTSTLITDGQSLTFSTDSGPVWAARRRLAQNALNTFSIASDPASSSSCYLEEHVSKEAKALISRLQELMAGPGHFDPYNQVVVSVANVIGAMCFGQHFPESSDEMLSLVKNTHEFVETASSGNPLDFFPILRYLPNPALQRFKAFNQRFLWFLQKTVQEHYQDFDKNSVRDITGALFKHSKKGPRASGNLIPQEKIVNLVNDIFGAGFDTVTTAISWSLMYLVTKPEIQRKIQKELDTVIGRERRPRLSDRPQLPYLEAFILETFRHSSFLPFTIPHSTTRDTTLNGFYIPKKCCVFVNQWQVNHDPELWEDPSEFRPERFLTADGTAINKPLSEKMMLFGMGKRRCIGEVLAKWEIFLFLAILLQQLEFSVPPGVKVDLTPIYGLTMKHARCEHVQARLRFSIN
# experiment-notes: CYP inhibition in human liver microsomes
# Assay type: in vitro ADME
# applied-conditions: probe phenacetin, phenacetin substrate
measured-attribute: IC50 at 10 min

Suppose we examine the compound O=S(=O)(NC1CCCOc2c1nn(-c1ccccc1Cl)c2-c1ccc(Cl)cc1)c1ccc(Cl)cc1 (stereo not shown) ; what IC50 at 10 min value has been reported?
> 50 µM

* * *

# pKi per record follows
# tgt: human CB2R (Homo sapiens, UniProt P34972)
# Sequence (P34972 whole entry): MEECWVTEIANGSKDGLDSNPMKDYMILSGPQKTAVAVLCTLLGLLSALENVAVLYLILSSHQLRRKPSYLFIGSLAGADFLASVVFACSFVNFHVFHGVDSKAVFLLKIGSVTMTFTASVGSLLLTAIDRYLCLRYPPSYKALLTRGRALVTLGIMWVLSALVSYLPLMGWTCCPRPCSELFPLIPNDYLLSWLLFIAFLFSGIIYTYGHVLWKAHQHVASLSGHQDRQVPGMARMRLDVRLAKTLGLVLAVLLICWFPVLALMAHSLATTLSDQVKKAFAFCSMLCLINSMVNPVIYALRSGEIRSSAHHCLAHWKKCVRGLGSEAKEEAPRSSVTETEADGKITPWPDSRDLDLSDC
Reminder that pKi means the negative base-10 logarithm of the concentration expressed in mol/L.

Example compounds with recorded pKi:
compound	measured-attribute	reported
CCOC(=O)N1CCC(C(=O)NC2CCCOc3c2nn(-c2ccccc2Cl)c3-c2ccc(Cl)cc2)CC1 (stereo not drawn) [BNS816]	pKi	5.82
O=S(=O)(NC1CCCOc2c1nn(-c1ccccc1Cl)c2-c1ccc(Cl)cc1)c1ccc(Cl)cc1 (stereo not drawn) [BNS808]	pKi	5.71

The record that follows has no pKi shown yet.
Suppose we examine the compound O=C(NC1CCCOc2c1nn(-c1ccccc1Cl)c2-c1ccc(Cl)cc1)C1CCN(S(=O)(=O)c2ccc(Cl)cc2)CC1 (stereo not drawn) [BNS825] ; what pKi value has been reported?
6.90

* * *

# tgt: CYP2D6 (Homo sapiens)
# Construct: from tissue; host or cells: human liver microsomes
# Sequence (P10635 whole entry): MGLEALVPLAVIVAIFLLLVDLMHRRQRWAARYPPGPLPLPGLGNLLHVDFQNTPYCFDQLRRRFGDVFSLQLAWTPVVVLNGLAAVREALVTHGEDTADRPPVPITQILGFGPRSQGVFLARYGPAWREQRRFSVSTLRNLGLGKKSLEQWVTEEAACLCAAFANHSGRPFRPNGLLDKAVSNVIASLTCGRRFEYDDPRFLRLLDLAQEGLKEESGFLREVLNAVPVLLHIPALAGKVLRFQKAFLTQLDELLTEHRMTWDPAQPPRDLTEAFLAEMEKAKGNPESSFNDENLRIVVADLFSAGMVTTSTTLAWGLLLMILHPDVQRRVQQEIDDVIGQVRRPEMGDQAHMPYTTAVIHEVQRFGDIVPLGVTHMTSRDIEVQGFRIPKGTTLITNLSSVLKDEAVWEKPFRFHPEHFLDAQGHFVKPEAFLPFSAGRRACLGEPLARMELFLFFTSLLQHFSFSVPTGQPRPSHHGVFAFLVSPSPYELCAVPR
# experiment-notes: CYP inhibition in human liver microsomes
# Type: in vitro ADME
# applied-conditions: probe dextromethorphan, dextromethorphan substrate
measured-attribute: IC50 at 10 min

Suppose we examine the molecule O=S(=O)(NC1CCCOc2c1nn(-c1ccccc1Cl)c2-c1ccc(Cl)cc1)c1ccc(Cl)cc1 (stereo not shown) [BNS808] ; what IC50 at 10 min value has been reported?
> 50 µM

* * *

# System: HepG2 cells
# experiment-notes: Cell viability assay (CellTiter Glo)
# Assay type: cell-based
# applied-conditions: Homo sapiens, 72 h, read-out: cell viability relative IC50
measured-attribute: IC50 (µM)
Output spec: scalar in µM, unitless text.

Example compounds with recorded IC50:
compound	measured-attribute	reported
Cc1ccc(S(=O)(=O)NC2CCCOc3c2nn(-c2ccccc2Cl)c3-c2ccc(Cl)cc2)cc1 (centres unmarked) [BNS807]	IC50	17.9
CN[C@@H]1C[C@H]2O[C@@](C)([C@@H]1OC)n1c3ccccc3c3c4c(c5c6ccccc6n2c5c31)C(=O)NC4 [Staurosporine, reference compound]	IC50	0.06
O=S(=O)(NC1CCCOc2c1nn(-c1ccccc1Cl)c2-c1ccc(Cl)cc1)c1ccc(Cl)cc1 (centres unmarked) [BNS808]	IC50	16.8

The record that follows has no IC50 shown yet.
# query: IC50 | item CS(=O)(=O)N1CCC(C(=O)NC2CCCOc3c2nn(-c2ccccc2Cl)c3-c2ccc(Cl)cc2)CC1 (centres unmarked) [BNS815] | system: HepG2 cells
46.7

* * *

# experiment-notes: Tissue distribution after acute oral administration
# Format: in vivo, mouse
# applied-conditions: male, C57Bl/6J, mouse, in vivo; 1 mg/kg PO, 1 h post-acute administration; read-out: liver/plasma (L/P) ratio
# Protocol: Male C57Bl/6J mice aged 7–9 weeks (3–4 mice per compound) were fasted overnight before administering each test compound. The compounds were accurately weighed and mixed with an appropriate vehicle to prepare a clear oral solution. The formulations were freshly prepared on the dosing day, and the mice were administered the compound via oral gavage within 4 h of formulation preparation. […] calculated using the equation: […]
measured-attribute: Kp at 1 h

Suppose we examine the compound O=S(=O)(NC1CCCOc2c1nn(-c1ccccc1Cl)c2-c1ccc(Cl)cc1)c1ccc(Cl)cc1 (stereo not shown) ; what Kp at 1 h value has been reported?
3.62
